Origin of the recorded values: patent US12257252B2

protocol summary: Food effect on sepiapterin: plasma sepiapterin and BH4 in fasted and fed subjects
Format: in vivo
condition: human, plasma; fed; sepiapterin 10 mg/kg oral; 1 h; read-out: Minimum sepiapterin concentration in plasma
result type: concentration at 1 h (nM)
Give bare numbers, in nM.

Prompt: If you can, please state the reported concentration at 1 h value of C[C@H](O)C(=O)C1=Nc2c(nc(N)[nH]c2=O)NC1 [sepiapterin, Sepiapterin] .
Response: 0

----------
protocol summary: Food effect on sepiapterin: plasma sepiapterin and BH4 in fasted and fed subjects
Type: in vivo
condition: human, plasma; fasted; sepiapterin 10 mg/kg oral; 8 h; read-out: Minimum sepiapterin concentration in plasma
result type: concentration at 8 h (nM)
Numbers only, in nM.

Prompt: If you can, please state the reported concentration at 8 h value of C[C@H](O)C(=O)C1=Nc2c(nc(N)[nH]c2=O)NC1 [sepiapterin, Sepiapterin] .
Response: 0
